Origin of values: BindingDB's records for doi:10.1002/cbdv.201000242

Measured IC50 on Tyrosine-protein phosphatase non-receptor type 1 (Homo sapiens) follows.
Sequence (P18031 whole entry): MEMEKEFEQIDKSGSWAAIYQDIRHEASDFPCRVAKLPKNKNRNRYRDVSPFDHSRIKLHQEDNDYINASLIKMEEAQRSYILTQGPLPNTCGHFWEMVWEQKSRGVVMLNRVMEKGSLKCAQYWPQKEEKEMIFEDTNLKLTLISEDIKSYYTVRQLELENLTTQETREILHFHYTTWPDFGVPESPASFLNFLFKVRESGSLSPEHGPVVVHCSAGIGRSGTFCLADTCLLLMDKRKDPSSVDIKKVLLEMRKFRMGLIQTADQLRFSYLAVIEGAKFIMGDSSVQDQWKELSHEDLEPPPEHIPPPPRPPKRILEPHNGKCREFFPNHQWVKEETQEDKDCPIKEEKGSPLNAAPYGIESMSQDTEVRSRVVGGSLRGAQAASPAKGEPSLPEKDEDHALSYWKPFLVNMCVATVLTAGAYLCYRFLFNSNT
Report the value in µM with no unit label.

Write down the reported IC50 (system: Tyrosine-protein phosphatase non-receptor type 1 (Homo sapiens)) of "CO[C@H]1O[C@H](Cn2cc(Cn3cnc4c(Cl)nc(N)nc43)nn2)[C@H](OCc2ccccc2)[C@H](OCc2ccccc2)[C@H]1OCc1ccccc1"
11.1

Could you now look at the following compound, please?
Write down the reported IC50 (system: Tyrosine-protein phosphatase non-receptor type 1 (Homo sapiens)) of "CO[C@H]1O[C@H](Cn2cc(Cn3cnc4c(Cl)nc(N)nc43)nn2)[C@@H](OCc2ccccc2)[C@H](OCc2ccccc2)[C@H]1OCc1ccccc1"
7.2
